- System: Trypanosoma cruzi
- TEST_DESCRIPTION: Antiparasitic activity against Trypanosoma cruzi Tulahuen C4 trypomastigotes infected in rat L6 cells after 96 hrs by CPRG/Nonidet reagent based photometric analysis
- Assay type: functional, organism-based
- CONDITIONS_USED: Tulahuen C4, L6, 96 h
Square brackets hold non-standard residues; d marks the D form. Peptide text beside a SMILES is read from it. * marks the point of attachment. NHPhenethyl = c1ccc(CCN*)cc1; NMeM = CN[C@@H](CCSC)C(=O)O; NMeV = CN[C@H](C(=O)O)C(C)C
Measured IC50 accompanies every entry in the list below.
Response body: numeric value in µM, unit text excluded.

1. CSCC[C@@H](C(=O)N(C)[C@H](C(=O)N(C)[C@H](C(=O)NCCc1ccccc1)C(C)C)C(C)C)N(C)C(=O)[C@@H](N)C(C)C (H-V[NMeM][NMeV][NMeV]-NHPhenethyl) ... 62.9
2. O=C(Cn1ccnc1[N+](=O)[O-])NCc1ccccc1 [BENZNIDAZOLE] ... 2.8
3. CSCC[C@@H](C(=O)N(C)[C@H](C(=O)N(C)[C@H](C(=O)N(C)[C@H](C(=O)NCCc1ccccc1)C(C)C)C(C)C)C(C)C)N(C)C(=O)[C@@H](N)C(C)C (H-V[NMeM][NMeV][NMeV][NMeV]-NHPhenethyl) ... 12.6

Let us examine a further case.
-- ask So what does the record say about IC50 for CN[C@H](C(=O)N[C@H](C(=O)N(C)[C@H](C(=O)N(C)[C@H](C(=O)N(C)[C@@H](CCSC)C(=O)NCCc1ccccc1)C(C)C)C(C)C)C(C)C)C(C)C (H-[NMeV]V[NMeV][NMeV][NMeM]-NHPhenethyl) ?
-- reply 53

###

- Tested on: Trypanosoma cruzi
- TEST_DESCRIPTION: Antiparasitic activity against Trypanosoma cruzi Tulahuen C4 trypomastigotes infected in rat L6 cells after 96 hrs by CPRG/Nonidet reagent based photometric analysis
- Format: functional, organism-based
- CONDITIONS_USED: Tulahuen C4, L6, 96 h
Square brackets hold non-standard residues; d marks the D form. Peptide text beside a SMILES is read from it. * marks the point of attachment. NHPhenethyl = c1ccc(CCN*)cc1; NMeM = CN[C@@H](CCSC)C(=O)O; NMeV = CN[C@H](C(=O)O)C(C)C
Measured IC50 accompanies every entry in the list below.
Response body: numeric value in µM, unit text excluded.

-- ask So what does the record say about IC50 for CN[C@H](C(=O)N[C@H](C(=O)N(C)[C@H](C(=O)N(C)[C@H](C(=O)N(C)[C@H](C(=O)NCCc1ccccc1)C(C)C)C(C)C)C(C)C)C(C)C)C(C)C (H-[NMeV]V[NMeV][NMeV][NMeV]-NHPhenethyl) ?
-- reply 26.2

-- ask So what does the record say about IC50 for CN[C@H](C(=O)N[C@H](C(=O)N(C)[C@H](C(=O)N(C)[C@H](C(=O)NCCc1ccccc1)C(C)C)C(C)C)C(C)C)C(C)C (H-[NMeV]V[NMeV][NMeV]-NHPhenethyl) ?
-- reply 69.4

-- ask So what does the record say about IC50 for CN[C@H](C(=O)N[C@H](C(=O)N(C)[C@H](C(=O)N(C)[C@@H](CCSC)C(=O)NCCc1ccccc1)C(C)C)C(C)C)C(C)C (H-[NMeV]V[NMeV][NMeM]-NHPhenethyl) ?
-- reply 75
